Measured pEC50 of individual entries
# testTarget: T1, human CD39 expressed on cells (human, UniProt P49961 1-510)
# T1 construct: also called ENTPD1; CD39 on JVM-13, ARH-77, IM-9, HUVEC cells and on CD39-transduced mouse sarcoma cells
# T1 sequence: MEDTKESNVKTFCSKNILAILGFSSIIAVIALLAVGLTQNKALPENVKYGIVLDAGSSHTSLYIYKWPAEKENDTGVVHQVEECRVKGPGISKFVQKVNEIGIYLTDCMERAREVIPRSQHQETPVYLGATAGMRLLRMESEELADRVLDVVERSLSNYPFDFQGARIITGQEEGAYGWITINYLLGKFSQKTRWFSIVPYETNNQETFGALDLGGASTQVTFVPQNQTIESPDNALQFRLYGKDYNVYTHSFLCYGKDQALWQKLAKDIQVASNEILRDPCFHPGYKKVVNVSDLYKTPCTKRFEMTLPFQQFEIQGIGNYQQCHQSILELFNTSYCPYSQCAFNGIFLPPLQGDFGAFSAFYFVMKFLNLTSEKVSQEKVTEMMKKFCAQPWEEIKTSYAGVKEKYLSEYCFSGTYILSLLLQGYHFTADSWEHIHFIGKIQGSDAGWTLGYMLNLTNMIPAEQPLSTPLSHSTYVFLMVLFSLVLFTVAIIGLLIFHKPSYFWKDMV
# assayDetails: flow cytometry on JVM-13 cells (endogenous human CD39)
Note on pEC50: it is the negative log10 of concentration, concentration in mol/L.

Illustrative cases are given below, each with its answer.
anti-CD39 monoclonal antibody 5-71A (antibody, V domains shown, purified mouse hybridoma antibody, IgG2a isotype; also called R21-5-71A; R29-5-71A) VH: DVQLVESGGGLVQPGGSRKLSCAASGFTFSSFGMHWVRQAPEKGLELVAYISSGSTIRYYSDTVKGRFTISRDNPKNTLFLQMTSLRSEDTAMYYCARFLYEGFRYGMDYWGQGTSVTVSS VL: DVLMTQTPLSLPVSLGDQASISCRSSQSIVHSNGNTYLEWYLQKPGQSPKLLIYKVSNRFSGVPDRFSGSGSGTDFTLKISRVEAEDLGIYYCFQGSHVPNTFGGGTKLEIK :: 10.05
anti-CD39 monoclonal antibody 5-13A (antibody, V domains shown, purified mouse hybridoma antibody, IgG2a isotype; also called R21-5-13A; R29-5-13A) VH: QVQLQQSGPELVKPGASVRISCKASGYTFTGYYVHWVKQRPGQGLEWIGWIYPGNVNTKYNEKFKAKATLTADKSSSTGYMQLSRLTSEDSAVYFCARSPYYGTTYYYTMDYWGQGTSVTVSS VL: EIVLTQSPAFMAASPGEKVTITCSVSLIISSRNLHWYQQKSETSPKPWIYGTSNLASGVPVRFSGSGSGTSYSLTISSMEAEDAATYYCQQWSDYPLTFGSGTKLEIK :: 9.74
anti-CD39 monoclonal antibody 9-8B (antibody, V domains shown, purified mouse hybridoma antibody, IgG2a isotype; also called R21-9-8B; R29-9-8B) VH: QIQLVQSGPELKKPGETVKISCKASGYTFTHYGMNWVKQAPGKGLKWMGWINTYTGELTYADDFKGRFAFSLETSASTAYLQINNLKNEDTATYFCARRAYYRYDYVMDYWGQGTSVTVSS VL: DIVMTQSQKFMSTSVGDRVSVTCKASHNVGTNVAWYQQKPGQSPKALIYSASYRYSGVPGRFTGSGSGTDFTLTISNVQSEDLAEYFCHQYNNYPYTFGGGTKLEIK :: 9.59

Moving on to another binder below.
Req: Requested field: pEC50. Item: anti-CD39 monoclonal antibody 5-165C (antibody, V domains shown, purified mouse hybridoma antibody, IgG2a isotype; also called R21-5-165C; R29-5-165C) VH: EVQLVESGGDLVKPGGSLKLSCAAFGFTFSRYGMSWVRQTPDKRLEWVATITSGGIYTYYPDSVKGRFTISRDNAKNTLYLQMSSLKSEETAMYYCARHGQFGDYYGMDYWGQGTSVTVSS VL: DVVMTQTPLSLPVSLGDQASISCRSSQSLLHSNGNTYLHWYLQKPGQSPKLLIYKVSNRFSGVPDRFSGSGSGTDFTLKISRVEAEDLGVYFCSQSTHVPYTFGGGTKLEIK
Resp: 9.96
